All figures here come from paper PMC9090415.

target: P. falciparum apicoplast DNA polymerase (Pf-apPOL) (Plasmodium falciparum, UniProt Q8ILY1); test: Fluorescence-based high-throughput DNA polymerase assay (molecular beacon), primary screen and dose-response; type: biochemical; conditions: DRC-1; 90'; conc 40
Sequence (Q8ILY1 entry or part of it): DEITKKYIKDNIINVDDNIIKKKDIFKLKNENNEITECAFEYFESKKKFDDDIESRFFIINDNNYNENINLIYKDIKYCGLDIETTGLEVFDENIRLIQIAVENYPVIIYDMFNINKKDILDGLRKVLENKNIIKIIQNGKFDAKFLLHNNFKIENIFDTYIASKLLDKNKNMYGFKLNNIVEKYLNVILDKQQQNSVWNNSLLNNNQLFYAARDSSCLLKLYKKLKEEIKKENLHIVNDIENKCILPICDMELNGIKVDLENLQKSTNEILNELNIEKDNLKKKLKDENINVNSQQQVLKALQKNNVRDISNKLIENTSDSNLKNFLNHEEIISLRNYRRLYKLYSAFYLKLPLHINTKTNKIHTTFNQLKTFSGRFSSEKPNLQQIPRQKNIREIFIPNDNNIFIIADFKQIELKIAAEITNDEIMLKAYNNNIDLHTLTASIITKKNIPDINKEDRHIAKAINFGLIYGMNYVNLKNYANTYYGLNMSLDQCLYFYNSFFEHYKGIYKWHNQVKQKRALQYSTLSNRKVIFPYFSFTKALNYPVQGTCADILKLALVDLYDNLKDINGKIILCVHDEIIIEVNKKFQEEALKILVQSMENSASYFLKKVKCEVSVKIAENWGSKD
Kindly supply the reported % inhibition Apol 90' values for the records listed here.
Your answer should be a number followed by the unit of measure.

See these solved cases before continuing.
compound: C=CCOc1c(Br)cc(Br)cc1/C=C1\SC(=N)NC1=O [KU0051640]
readout: % inhibition Apol 90'
assay-result: 86.7215%

compound: O=c1nc(/C=C/c2ccc(Br)cc2)oc2ccccc12 [KU0052629]
readout: % inhibition Apol 90'
assay-result: 85.0713%

compound: Cc1cccc(C2=N/C(=C\c3ccc([N+](=O)[O-])o3)C(=O)O2)c1 [KU0058960]
readout: % inhibition Apol 90'
assay-result: 86.2407%

compound: Cc1ccccc1NC(=O)Cn1ccc2c(=O)[nH]ccc21 [Molecule 50, O=C(Cn1ccc2c1cc[nH]c2=O)Nc1ccc(cc1)C]
readout: % inhibition Apol 90'
assay-result: 88.9511%

compound: Cc1ccc(N2NC(=O)/C(=C\c3ccc(O)c([N+](=O)[O-])c3)C2=O)cc1Cl [KU0058427]
readout: % inhibition Apol 90'
assay-result: 83.5201%

compound: O=C(O)c1ccc(COc2cc([N+](=O)[O-])cc3cccnc23)cc1 [KU0058403]
readout: % inhibition Apol 90'
assay-result: 83.537%

Please supply % inhibition Apol 90' for each of the following items, keeping them in order.
1. O=C1Nc2ccc(I)cc2C1=Cc1cc(Br)c(O)c(Br)c1 [Molecule 27]
2. O=C1NN(c2ccc(Cl)c(Cl)c2)C(=O)/C1=C/c1ccc(-c2ccc3c(c2)C(=O)OC3)o1 [Molecule 90]

["72.1753%", "85.5188%"]

---

Please provide measured % inhibition T4 40' for the entries that follow.
Biological target: bacteriophage T4 DNA polymerase (Enterobacteria phage T4, UniProt P04415)
Construct: made in house
Sequence (P04415 1-898): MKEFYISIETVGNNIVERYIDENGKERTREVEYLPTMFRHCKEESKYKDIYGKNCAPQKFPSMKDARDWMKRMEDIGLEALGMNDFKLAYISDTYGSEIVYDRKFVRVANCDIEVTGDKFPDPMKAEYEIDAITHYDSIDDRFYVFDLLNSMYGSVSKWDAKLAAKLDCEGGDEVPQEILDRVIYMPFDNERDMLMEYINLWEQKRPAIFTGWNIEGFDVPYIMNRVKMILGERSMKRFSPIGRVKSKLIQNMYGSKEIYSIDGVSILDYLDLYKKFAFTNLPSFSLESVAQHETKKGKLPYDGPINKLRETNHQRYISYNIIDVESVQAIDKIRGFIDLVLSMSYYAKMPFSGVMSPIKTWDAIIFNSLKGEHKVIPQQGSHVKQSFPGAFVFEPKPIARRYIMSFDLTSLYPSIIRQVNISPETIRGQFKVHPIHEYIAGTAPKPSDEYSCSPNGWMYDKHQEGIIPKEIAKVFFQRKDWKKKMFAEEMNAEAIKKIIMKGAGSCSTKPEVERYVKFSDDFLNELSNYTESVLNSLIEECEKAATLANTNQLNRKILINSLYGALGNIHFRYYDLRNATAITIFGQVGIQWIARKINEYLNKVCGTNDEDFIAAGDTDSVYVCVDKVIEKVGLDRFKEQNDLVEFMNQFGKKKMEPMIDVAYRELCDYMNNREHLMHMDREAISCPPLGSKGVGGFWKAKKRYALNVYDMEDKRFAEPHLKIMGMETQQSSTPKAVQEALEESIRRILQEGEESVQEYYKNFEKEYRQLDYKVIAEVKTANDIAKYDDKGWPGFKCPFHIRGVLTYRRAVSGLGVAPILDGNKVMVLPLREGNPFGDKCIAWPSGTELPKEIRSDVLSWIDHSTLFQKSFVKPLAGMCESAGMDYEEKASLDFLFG
Experiment: Counter-screen against bacteriophage T4 DNA polymerase
Format: biochemical
Settings: DRC-2; 40'; concentration 40
Numbers only, in %.

State recorded % inhibition T4 40' for all listed molecules.
1. COc1ccc(C(=O)N2CCc3c(nc4cc(-c5ccccc5Cl)[nH]n4c3=O)C2)cn1
2. Cc1ccc(C)n1-c1ccc(C(=O)NNC(=O)c2ccc3nccnc3c2)cc1
3. CC(NC(=O)Cc1cc(=O)[nH]c(SCc2cccc(Cl)c2)n1)c1ccccc1 (stereo not shown)
4. O=C(NC(C(Cl)Cl)S(=O)(=O)c1ccccc1)c1ccccc1 (stereo not shown)

[-23, 29, 31, -26]

---

Kindly supply the reported % inhibition ApPOL 90' 2.5 values for the records listed here.
target: P. falciparum apicoplast DNA polymerase (Pf-apPOL) (Plasmodium falciparum, UniProt Q8ILY1); test: Fluorescence-based high-throughput DNA polymerase assay (molecular beacon), primary screen and dose-response; type: biochemical; conditions: DRC-2; read at 90'; concentration 2.5

Each molecule below has a reported value. Please supply its % inhibition ApPOL 90' 2.5.
1. CC(=O)Nc1cc(C(=O)c2cccs2)nn(-c2ccc(Cl)cc2)c1=O
2. C#CC(C=CC)OC(=O)c1ccccc1C(=O)O (centres unmarked)

["3.39%", "0.76%"]

Your task in this section: give % inhibition ApPOL 90' 2.5 for each listed record.
1. O=C1CSC2=NC3=C(CCc4ccccc43)C(c3cccs3)N12 (centres unmarked)
2. Cc1nc(C)c2c(n1)N(CC1CCCCC1)C(=O)CC2
3. Nc1cc(Oc2ccc(O)c(N)c2)ccc1O

-1.13%
25%
43%

---

biological target: P. falciparum apicoplast DNA polymerase (Pf-apPOL) (Plasmodium falciparum); assay: Fluorescence-based high-throughput DNA polymerase assay (molecular beacon), primary screen and dose-response; assay type: biochemical; conditions: DRC-2, 180', concentration 10
Exercise: state measured % inhibition apPOL 180' for each of the compounds provided.
One number for each entry, in %.

Reference set, count: 2
compound: CCSc1nnc(NC(=O)Cc2csc(NC(=O)c3cnccn3)n2)s1
unit-descriptor: %
% inhibition apPOL 180': 14

compound: CO/N=C(\C(=O)N[C@@H]1C(=O)N2C(C(=O)[O-])=C(CSc3nc(=O)c([O-])nn3C)CSC12)c1csc(N)n1.[Na+].[Na+] (some centres unmarked)
unit-descriptor: %
% inhibition apPOL 180': -7

Please give % inhibition apPOL 180', item by item, for the list that follows.
1. O=C(O)c1c(F)c(F)c(-c2c(F)c(F)c(C(=O)O)c(F)c2F)c(F)c1F
2. O=C(Nc1ncc([N+](=O)[O-])s1)c1ccc2c(c1)C(=O)N(N1C(=O)c3ccccc3C1=O)C2=O

1. 12
2. 24

Below are some compounds; for each one, tell me its % inhibition apPOL 180'.
1. COc1cc(/C=C2\S/C(=N/C(C)=O)NC2=O)cc(Br)c1OCC(=O)O
2. O=C(Nc1nnc(-c2ccno2)o1)c1ccc2c(c1)OCO2
3. CN(C)C=C1SCc2ccccc2C1=O
4. O=C(O)CC1=NN(c2cccc([N+](=O)[O-])c2)C(=O)C1

1. 4
2. 1.55
3. 0.193
4. 17

---

target: UniProtKB Q8ILY1; test: Fluorescence-based high-throughput DNA polymerase assay (molecular beacon), primary screen and dose-response; format: biochemical; conditions: DRC-1; 180'; concentration 80
Classification field: T = % inhibition apPOL 180' at or over 70%; F = % inhibition apPOL 180' under 70%.

Does CCCCOC(=O)CCCCCN1C(=O)C(=Cc2ccc(OC)cc2)SC1=S have a reported % inhibition apPOL 180' of at least 70%?
T

Could you tell me if the measured % inhibition apPOL 180' of Cc1cccc(CC(=O)N2CCc3c(nc4cc(-c5ccccc5)[nH]n4c3=O)C2)c1 reaches 70% or more?
T

Check this molecule for % inhibition apPOL 180' at or above 70%: Cc1ccc(NC(=O)Cn2ccc3c(=O)[nH]ccc32)cc1F [Molecule 48, O=C(Cn1ccc2c1cc[nH]c2=O)Nc1ccc(c(c1)F)C]
T

Reported % inhibition apPOL 180' at or above 70%? CCCCc1ccc(NC(=O)CSc2nc(O)c(C#N)c(C3CCCCC3)n2)c(C)c1
T

Tell me whether % inhibition apPOL 180' is at least 70% here: COc1ccc2c(c1)CCc1c-2nc2ccc(Br)cc2c1C(=O)O
F

Exam item: decide whether the reported % inhibition apPOL 180' for COc1cc(/C=C2\S/C(=N/C(C)=O)NC2=O)cc(Br)c1OCC(=O)O is at least 70%.
F

Given the entry O=C(NCC1CCN(C2CCCC2)CC1)C(=O)NC1CCCC1 , answer whether its % inhibition apPOL 180' meets or surpasses 70%.
T

---

biological target: P. falciparum apicoplast DNA polymerase (Pf-apPOL) (Plasmodium falciparum); assay: Fluorescence-based high-throughput DNA polymerase assay (molecular beacon), primary screen and dose-response; format: biochemical; conditions: DRC-1; 10'; conc 20
readout: % inhibition Apo pol 10' (%)
Numbers only, in %.

Look over these answered cases.
compound: CC(C)CCNC(=O)c1cnn2c(O)cc(CSc3ccc(Cl)cc3)nc12
test-target: P. falciparum apicoplast DNA polymerase (Pf-apPOL) (Plasmodium falciparum)
assay-result: 79.7694

compound: O=C(O)c1ccc(COc2cc([N+](=O)[O-])cc3cccnc23)cc1
test-target: P. falciparum apicoplast DNA polymerase (Pf-apPOL) (Plasmodium falciparum)
assay-result: 75.4082

compound: COc1ccccc1C1CC(=O)Oc2cc3c(cc21)OCO3 (stereo not drawn)
test-target: P. falciparum apicoplast DNA polymerase (Pf-apPOL) (Plasmodium falciparum)
assay-result: 76.0203

I'm hoping you can list % inhibition Apo pol 10' for every compound here, please.
1. Cc1cccc(C2=N/C(=C\c3ccc([N+](=O)[O-])o3)C(=O)O2)c1
2. C=CCOc1c(Br)cc(Br)cc1/C=C1\SC(=N)NC1=O
3. O=C1Nc2ccc(I)cc2C1=Cc1cc(Br)c(O)c(Br)c1
4. Cc1ccc(CNC(=O)c2cnn3c(O)cc(CSc4ccc(Cl)cc4)nc23)cc1
5. Cc1cc(C)c2c(c1)C1C=CCC1C(c1ccc(C(=O)O)cc1)N2 (stereo not drawn)
6. Cc1ccccc1NC(=O)Cn1ccc2c(=O)[nH]ccc21 [Molecule 50, O=C(Cn1ccc2c1cc[nH]c2=O)Nc1ccc(cc1)C]
7. Cc1ccc(N2NC(=O)/C(=C\c3ccc(O)c([N+](=O)[O-])c3)C2=O)cc1Cl

80.2962
46.0852
68.6495
87.9776
82.8067
84.6667
74.2262

For every item below, please supply its % inhibition Apo pol 10'.
1. Cc1ccc(NC(=O)Cn2ccc3c(=O)[nH]ccc32)c(C)c1
2. COC(=O)c1sc(-c2ccc(C(C)(C)C)cc2)cc1NC(=O)CCC(=O)O
3. N#CC(C#N)=C1SCN(c2cccc(Cl)c2)CS1

1: 57.4285; 2: 85.0828; 3: 90.158
